Documented Total Flux (luciferase expression) across a set of compounds
tested on: firefly luciferase; experiment: In vivo firefly luciferase expression after intravenous injection of fLuc mRNA delivery vehicles (IVIS imaging); parameters: species or system female Balb/c mice; conditions: formulation recipe R7; fLuc mRNA, intravenous, Balb/c mice
Starred links: 1 amine or outer side, 2 acyl side, 3 side chain; linkers in the order of their positions; H or OH if unused. Non-standard residues stand in square brackets, D forms with d. Residues, ends and D or L forms follow the SMILES beside them. Gly(N-(3-decanoyloxypropyl)) = CCCCCCCCCC(=O)OCCCNCC(=O)O; N(2-decanoyloxyethyl)Gly = CCCCCCCCCC(=O)OCCNCC(=O)O; Gly(N-(CH2)3O-octanoyl) = CCCCCCCC(=O)OCCCNCC(=O)O; N(2-ethylhexyl)Gly = CCCCC(CC)CNCC(=O)O; X1 = CCCCC(CC)CSSCCN(CC(=O)[*:2])[*:1]; N(CH(CH2OH)2)Gly = O=C(O)CNC(CO)CO; N(octyl)Gly = CCCCCCCCNCC(=O)O
Give the quantity in p/s, number only.

CCCCCCCC(=O)OCCCN(CC(=O)N(CCCOC(=O)CCCCCCC)CC(=O)N(CCSSCC(CC)CCCC)CC(=O)N(CCCOC(=O)CCCCCCC)CC(=O)N(CCCOC(=O)CCCCCCC)CC(=O)N(CCSSCC(CC)CCCC)CC(N)=O)C(=O)CNC(CO)CO (stereo not drawn) [Compound 128] (H-[N(CH(CH2OH)2)Gly][Gly(N-(CH2)3O-octanoyl)][Gly(N-(CH2)3O-octanoyl)][X1][Gly(N-(CH2)3O-octanoyl)][Gly(N-(CH2)3O-octanoyl)][X1]-NH2) : 1.09E+09
CCCCCCCCCC(=O)OCCN(CC(=O)N(CCOC(=O)CCCCCCCCC)CC(=O)N(CC(=O)N(CCOC(=O)CCCCCCCCC)CC(=O)N(CCOC(=O)CCCCCCCCC)CC(=O)N(CC(N)=O)CC(CC)CCCC)CC(CC)CCCC)C(=O)CNC(CO)CO (stereo not drawn) [Compound 16] (H-[N(CH(CH2OH)2)Gly][N(2-decanoyloxyethyl)Gly][N(2-decanoyloxyethyl)Gly][N(2-ethylhexyl)Gly][N(2-decanoyloxyethyl)Gly][N(2-decanoyloxyethyl)Gly][N(2-ethylhexyl)Gly]-NH2) : 1.81E+09

Lab note: next compound to report on.
Problem: // query Total Flux (luciferase expression) value for entry CCCCCCCCCC(=O)OCCCN(CC(=O)N(CC(N)=O)CC(CC)CCCC)C(=O)CN(CCCCCCCC)C(=O)CN(CC(CC)CCCC)C(=O)CN(CCCOC(=O)CCCCCCCCC)C(=O)CN(CCCCCCCC)C(=O)CNC(CO)CO (stereo not drawn) [Compound 32] (H-[N(CH(CH2OH)2)Gly][N(octyl)Gly][Gly(N-(3-decanoyloxypropyl))][N(2-ethylhexyl)Gly][N(octyl)Gly][Gly(N-(3-decanoyloxypropyl))][N(2-ethylhexyl)Gly]-NH2)
Result: 1.41E+09
